All values here come from patent US20220056134A1.

Field: kon. Provide a value for each of the binders that follow.
# test system: T1, IL-13 (in-house) (UniProt P35225 35-146, limits assumed)
# T1 construct: SPR analyte
# T1 sequence (P35225 35-146 limits assumed): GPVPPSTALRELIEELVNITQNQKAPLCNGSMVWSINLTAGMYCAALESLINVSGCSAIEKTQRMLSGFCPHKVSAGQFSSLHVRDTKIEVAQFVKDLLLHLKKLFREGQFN
# measurement description: SPR (BIAcore T200), Fab captured on anti-Fab chip, IL-13 as analyte, 25 C, 1:1 model
A number alone suffices; assume M⁻¹ s⁻¹.

The recorded kon for entry Parental anti-IL-13 Fab (lebrikizumab) (Fab, V domains shown, Tested as Fab) VH: EVTLRESGPALVKPTQTLTLTCTVSGFSLSAYSVNWIRQPPGKALEWLAMIWGDGKIVYNSALKSRLTISKDTSKNQVVLTMTNMDPVDTATYYCAGDGYYPYAMDNWGQGSLVTVSS VL: DIVLTQSPDSLSVSLGERATINCRASKSVDSYGNSFMHWYQQKPGQPPKLLIYLASNLESGVPDRFSGSGSGTDFTLTISSLQAEDVAVYYCQQNNEDPRTFGGGTKVEIK equals 1.17e+06

response.value for anti-IL-13 Fab variant CDR L3 D94A:R96A (Fab, V domains shown, Fab; variable domains only; Kabat numbering; also called D94: R96A double substitution) VH: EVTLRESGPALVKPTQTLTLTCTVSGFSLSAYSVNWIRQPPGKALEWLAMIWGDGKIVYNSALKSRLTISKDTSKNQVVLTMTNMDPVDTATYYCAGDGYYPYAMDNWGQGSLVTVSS VL: DIVLTQSPDSLSVSLGERATINCRASKSVDSYGNSFMHWYQQKPGQPPKLLIYLASNLESGVPDRFSGSGSGTDFTLTISSLQAEDVAVYYCQQNNEAPATFGGGTKVEIK (field: kon) = 528000

The recorded kon for entry anti-IL-13 Fab variant CDR H3 P99A (Fab, name in Kabat numbering, V domains shown, Fab; variable domains only; Kabat numbering) VH: EVTLRESGPALVKPTQTLTLTCTVSGFSLSAYSVNWIRQPPGKALEWLAMIWGDGKIVYNSALKSRLTISKDTSKNQVVLTMTNMDPVDTATYYCAGDGYYAYAMDNWGQGSLVTVSS VL: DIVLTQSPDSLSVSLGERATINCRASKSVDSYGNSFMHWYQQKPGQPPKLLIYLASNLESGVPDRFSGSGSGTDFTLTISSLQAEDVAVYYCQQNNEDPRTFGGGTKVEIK equals 1.5e+06

Input anti-IL-13 Fab variant CDR L3 N92A (Fab, V domains shown, Fab; variable domains only; Kabat numbering) VH: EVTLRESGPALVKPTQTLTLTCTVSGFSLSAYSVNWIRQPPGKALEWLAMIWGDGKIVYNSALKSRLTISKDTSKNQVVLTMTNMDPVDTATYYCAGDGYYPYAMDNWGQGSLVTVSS VL: DIVLTQSPDSLSVSLGERATINCRASKSVDSYGNSFMHWYQQKPGQPPKLLIYLASNLESGVPDRFSGSGSGTDFTLTISSLQAEDVAVYYCQQNAEDPRTFGGGTKVEIK . Output kon: 1.03e+06
